Values were extracted from PubChem BioAssay.

test: inhibitors of TNFa-induced NFkB p65 translocation, primary screen, imaging, HUVEC, MLSMR starter and 10KST1 sets (AID 438); settings: HUVEC TNFa-induced p65 nuclear translocation; at 2 µM, stronger effect = higher value, 0% TNFa-plus-vehicle, 100% no-TNFa wells;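 further: compound added about 3h40 before a 20 min TNFalpha stimulation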;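 on inhibition: signal is the nuclear over cytoplasmic p65 intensity ratio per well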
Measured inhibition by item

{"compound": "CCSc1nnc(-c2cccs2)o1", "inhibition / %": -4.5}
{"compound": "CC(=O)N1CCC(N(C(=O)Nc2ccc(C)c(C)c2)C2CCCC2)CC1", "inhibition / %": -3.1}
{"compound": "O=C(OCCN(CCOC(=O)c1ccncc1)S(=O)(=O)c1cccs1)c1ccncc1", "inhibition / %": 10.8}
{"compound": "Cc1cccc(Cn2c(SCCN3CCCCC3)nc3c2c(=O)[nH]c(=O)n3C)c1", "inhibition / %": 6.4}
{"compound": "O=C(C1CCN(c2nnc(-n3cccc3)s2)CC1)N1CCOCC1", "inhibition / %": -2.9}
{"compound": "C[C@H](NC(=O)NCc1cccs1)C(=O)O", "inhibition / %": 4.3}
{"compound": "Oc1ccc(Cl)cc1-c1cc(-c2ccccc2)n[nH]1", "inhibition / %": -11.4}
{"compound": "CC(O)c1cc2c(cc1NC(=O)c1cnn3c1NC(c1ccco1)CC3C(F)(F)F)OCO2 (centres undefined)", "inhibition / %": 8.7}
{"compound": "COc1ccc(Cn2nnnc2CN2CCOCC2)cc1", "inhibition / %": 2.5}
{"compound": "O=C(c1cc(N2CCCCC2)nc2ccccc12)N1CCOCC1", "inhibition / %": 3.5}
{"compound": "COc1cc(S(=O)(=O)N2CCN(C)CC2)c(OC)cc1Br", "inhibition / %": 13.9}
{"compound": "Clc1cc2c(c(Cn3cnc4ccccc43)c1)OCOC2", "inhibition / %": 7.5}
{"compound": "COc1ccc(OC)c(-c2nc3c(C)n[nH]c(=O)c3[nH]2)c1", "inhibition / %": 10.3}
{"compound": "N#Cc1c2c(c(-c3ccccc3)[nH]c1=O)CCCC2", "inhibition / %": -9.4}
{"compound": "N#CCOc1nc(N2CCOCC2)nc(N2CCOCC2)n1", "inhibition / %": -30.6}
{"compound": "COC(=O)CC(C(=O)Nc1cc(C(=O)OC)cc(C(=O)OC)c1)N1CCN(C)CC1 (centres undefined)", "inhibition / %": -7.5}
{"compound": "O=C1CCCN1c1ccc(S(=O)(=O)NCc2ccco2)cc1", "inhibition / %": 3.6}
{"compound": "CC1C=CC(C)C(C(=O)O)C1C(=O)O (centres undefined)", "inhibition / %": -4.4}
{"compound": "C=C(Cl)COC(=O)[C@H]1C2C=CC(C2)C1C(=O)O (some centres undefined)", "inhibition / %": -5}
{"compound": "CC(C)c1[nH]c(=O)c(C#N)c2c1CSC(C)(C)C2", "inhibition / %": -14}
{"compound": "COc1ccc(S(=O)(=O)Nc2cc(C)on2)cc1OC", "inhibition / %": 6.5}
{"compound": "CCCCCOc1ccccc1C(=O)NCCCC(=O)O", "inhibition / %": -4.8}
{"compound": "CC(=O)N(Cc1ccccc1)c1ccc(C(=O)O)cc1", "inhibition / %": -9.7}
{"compound": "Cc1c(C)n(C(=O)CSc2nccn2C)c2ccccc12", "inhibition / %": 8.3}

====

assay: inhibitors of TNFa-induced NFkB p65 translocation, primary screen, imaging, HUVEC, MLSMR starter and 10KST1 sets (AID 438); conditions: HUVEC TNFa-induced p65 nuclear translocation; measured here: nuclei count (cytotoxicity indicator), at 2.08 µM;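 further: compound added about 3h40 before a 20 min TNFalpha stimulation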
Below, each entry is listed alongside its reported cell count.
endpoint-label: cell count

{"compound": "CCOC(=O)c1[nH]c2ccccc2c1N=C(C)N(CC)CC", "result-number": 643}
{"compound": "COC(=O)c1cn(C(=O)c2ccc(Br)o2)c2ccccc12", "result-number": 309}
{"compound": "CCOC(=O)C(O)(C1C(=O)CC(C)(C)CC1=O)C(F)(F)F (stereo unspecified)", "result-number": 681}
{"compound": "COC(=O)CSC1=C(C#N)C(c2ccc(F)cc2)CC(=O)N1 (stereo unspecified)", "result-number": 591}
{"compound": "CCOC(=O)c1c(C)oc2ccc(OCC(=O)C(C)(C)C)cc12", "result-number": 668}
{"compound": "CCCC(=O)Nc1nnc(CC(=O)OCC)s1", "result-number": 799}

====

# maps each entry to its inhibition of aggregation
assay: inhibitors of mutant huntingtin aggregation, primary screen, imaging, exon1htt(103Q)mCFP cells, high-content imaging (AID 483); details: exon1htt(103Q)mCFP cell line, aggregate imaging, at 2 µM; stronger effect = higher value;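 further: compound exposure lasted 3 days before fixation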

{"compound": "Cc1ccc(-c2noc(CCC(=O)NC3CCCc4ccccc43)n2)cc1 (stereo not drawn)", "inhibition of aggregation / %": 5.2}
{"compound": "O=S(=O)(c1cccs1)N1CCN(C/C=C/c2ccccc2)CC1", "inhibition of aggregation / %": -19.8}
{"compound": "O=S1(=O)N=C(Nc2nc3c(s2)CCCC3)c2ccccc21", "inhibition of aggregation / %": 5}
{"compound": "O=C(Cn1c(=O)oc2ccccc21)Nc1ccc(S(=O)(=O)N2CCCCC2)cc1", "inhibition of aggregation / %": -5.3}
{"compound": "CC(C)Cn1c(CN2CCN(c3ccccc3F)CC2)nc2c1c(=O)[nH]c(=O)n2C", "inhibition of aggregation / %": -8.3}
{"compound": "COc1ccc(CNC(=O)c2cnc3n(c2=O)CCS3)cc1", "inhibition of aggregation / %": 15.6}
{"compound": "CCCCCCC1/C(=N/O)CCC1C(=O)OC (stereo not drawn)", "inhibition of aggregation / %": 7.3}
{"compound": "O=C(CSc1nnc(COc2ccc(Cl)cc2)o1)N1CCN(c2ccccc2)CC1", "inhibition of aggregation / %": -18.8}
{"compound": "O=C(O)COc1ccc(S(=O)(=O)NCCc2ccccc2)cc1", "inhibition of aggregation / %": 20.5}
{"compound": "CCCOc1ccc(N2C(=O)CC(SCCN)C2=O)cc1 (stereo not drawn)", "inhibition of aggregation / %": -9.8}
{"compound": "Cc1nn(C(=O)c2ccoc2C)c(N)c1-c1ccccc1", "inhibition of aggregation / %": -13.8}
{"compound": "COC(=O)CSC1=C(C#N)C(c2ccc(F)cc2)CC(=O)N1 (stereo not drawn)", "inhibition of aggregation / %": -6.5}
{"compound": "CN1CCCC(OC(=O)c2ccc3c(c2)OCCO3)C1 (stereo not drawn)", "inhibition of aggregation / %": 23.1}
{"compound": "CCN(CC)Cc1csc(C(N)=O)c1", "inhibition of aggregation / %": 0.5}
{"compound": "Cc1c(C#N)sc2nc(-c3ccccc3)nc(N3CCCC3)c12", "inhibition of aggregation / %": -28.2}
{"compound": "O=C(CSc1nnc(CNC(=O)c2cccs2)o1)NCCc1ccccc1", "inhibition of aggregation / %": -14.6}
{"compound": "O=C(NCC(=O)N(c1ccc2c(c1)OCCO2)C(C(=O)NC1CCCC1)c1ccco1)c1ccco1 (stereo not drawn)", "inhibition of aggregation / %": -23.9}
{"compound": "O=C(CSc1nnnn1-c1ccc(Cl)cc1)NC(=O)Nc1ccc2c(c1)OCCO2", "inhibition of aggregation / %": 19.6}
{"compound": "COc1ccc(C2CC(C(F)(F)F)n3ncc(C(=O)NCc4cccnc4)c3N2)cc1OC (stereo not drawn)", "inhibition of aggregation / %": 8.9}
{"compound": "O=C(CC(C(=O)N1CCc2ccccc21)n1ccnc1)NCc1cccnc1 (stereo not drawn)", "inhibition of aggregation / %": 23.5}
{"compound": "COc1ccc(S(=O)(=O)N2CCC(C(=O)c3ccc4c(c3)OCCO4)CC2)cc1", "inhibition of aggregation / %": 14.2}
{"compound": "Cc1cc(C)n(-c2nc3sc4c(c3c3nnc(SCC(N)=O)n23)CC(C)(C)OC4)n1", "inhibition of aggregation / %": -7.7}
{"compound": "O=C(CCOc1ccccc1)NCc1ccccc1", "inhibition of aggregation / %": -3.7}

====

Reported nuclei count values for the following compounds.
test: inhibitors of mutant huntingtin aggregation, primary screen, imaging, exon1htt(103Q)mCFP cells, high-content imaging (AID 483); conditions: exon1htt(103Q)mCFP cell line, aggregate imaging, at 2 µM; measured here: cell count, toxicity;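 further: compound exposure lasted 3 days before fixation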;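 on nuclei count: percent of the per-plate median nuclei count of sample wells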

{"compound": "O=C(/C=N/O)NCc1ccncc1", "units-symbol": "%", "nuclei count": 98.3}
{"compound": "CCN(CC)C(=O)Cn1c(=O)n(Cc2ccccc2Cl)c2c1c(=O)n(C)c(=O)n2C", "units-symbol": "%", "nuclei count": 94.3}
{"compound": "Cc1ccccc1-n1c(Cn2c(=O)sc3ccccc32)nnc1SCC(=O)N1CCCC1", "units-symbol": "%", "nuclei count": 112}
{"compound": "CCOC(=O)/N=C(/NC(=O)Nc1ccc(C(=O)OCC)cc1)OC", "units-symbol": "%", "nuclei count": 92.2}
{"compound": "CCC(C)(C)n1nnnc1C(c1ccncc1)N1CCN(c2cccc(OC)c2)CC1 (centres undefined)", "units-symbol": "%", "nuclei count": 95.6}
{"compound": "COCCn1c(C)cc(C(=O)COC(=O)CCN2C(=O)c3ccccc3C2=O)c1C", "units-symbol": "%", "nuclei count": 96.8}
{"compound": "COc1ccc(C2CC(C(F)(F)F)n3ncc(C(=O)NCc4cccnc4)c3N2)cc1OC (centres undefined)", "units-symbol": "%", "nuclei count": 57.1}
{"compound": "O=C(CCCOc1ccccc1)N1CCN(c2ccccn2)CC1", "units-symbol": "%", "nuclei count": 53.2}
{"compound": "Cc1ccc(-c2noc(CCC(=O)NC3CCCc4ccccc43)n2)cc1 (centres undefined)", "units-symbol": "%", "nuclei count": 108}
{"compound": "CN(C)CCCN1C(=O)CSC1c1ccccc1 (centres undefined)", "units-symbol": "%", "nuclei count": 93.9}
{"compound": "CCOC(=O)N1CCN(C(=O)c2cccn3c(=O)c4sccc4nc23)CC1", "units-symbol": "%", "nuclei count": 102}
{"compound": "CCC(C)(C(=O)NC1CCCCC1)N(Cc1ccco1)C(=O)c1ccc2c(c1)OCO2 (centres undefined)", "units-symbol": "%", "nuclei count": 80.7}
{"compound": "c1ccc2c(c1)c1c3n2CCNC3CCC1 (centres undefined)", "units-symbol": "%", "nuclei count": 103}
{"compound": "O=C(Nc1ccc(N2CCOCC2)c(Cl)c1)c1ccc(Br)o1", "units-symbol": "%", "nuclei count": 103}
{"compound": "CN1CCC(NC(=O)c2cccs2)CC1", "units-symbol": "%", "nuclei count": 88.6}
{"compound": "Cc1ccc(-c2noc(CN3C(C)CCCC3C)n2)cc1 (centres undefined)", "units-symbol": "%", "nuclei count": 75.4}
{"compound": "O=C(CCn1c(=O)sc2ccccc21)Nc1nccs1", "units-symbol": "%", "nuclei count": 65.7}
{"compound": "CC(CCc1ccccc1)NC(=O)C1CCCN(c2nnc(-n3cccc3)s2)C1 (centres undefined)", "units-symbol": "%", "nuclei count": 99.3}
{"compound": "CS(=O)(=O)N(Cc1ccco1)CC(O)Cn1c2ccccc2c2ccccc21 (centres undefined)", "units-symbol": "%", "nuclei count": 103}
{"compound": "COCCNC(=O)C1CCCN(c2ncccn2)C1 (centres undefined)", "units-symbol": "%", "nuclei count": 100}
{"compound": "COc1cccc(CNc2nc3nc(C)c(Cl)c(C)n3n2)c1", "units-symbol": "%", "nuclei count": 86.4}
{"compound": "Cc1ccc(NC(=O)CSc2nnc(-c3ccccn3)n2C)cc1", "units-symbol": "%", "nuclei count": 92.4}
{"compound": "COCCOC(=O)c1[nH]c2c(c1C)C(=O)CC(c1ccco1)C2 (centres undefined)", "units-symbol": "%", "nuclei count": 2.7}
{"compound": "CCC1CCCCN1C(=O)CSc1nnc(-c2ccc(OC)cc2)o1 (centres undefined)", "units-symbol": "%", "nuclei count": 96.8}
